System: PC-3 prostate
Test: NCI-60 one-dose screen, 48 h (100 = growth as untreated, 0 = no growth, -100 = all killed)
Conditions: 10 µM unless noted
This is part of a sample that, as a whole, favours compounds with a hit. Of some 83,000 tested, about 20% had one in any assay.
Just so you know, the groups by growth go like this: class A = under 40%, class B = from 40% up to 80%, class C = 80% and over

[[record]]
molecule = "CS(=O)(=O)O[C@@H]1C(=O)N(c2cc3c4ccccc4ccc3c3ccccc23)[C@H]1c1ccc(F)cn1"
system = "PC-3 prostate"
class_name = "class A"

[[record]]
molecule = "O=C(/C(=C/c1ccc([N+](=O)[O-])cc1)SCc1ccccc1)c1ccc(Cl)cc1"
system = "PC-3 prostate"
class_name = "class B"

[[record]]
molecule = "C=C(C)[C@@H]1CC[C@]2(C(N)=O)CC[C@]3(C)[C@H](CC[C@@H]4[C@@]5(C)CCCNC(C)(C)[C@@H]5CC[C@]43C)[C@@H]12"
system = "PC-3 prostate"
class_name = "class B"

[[record]]
molecule = "COc1ccc(-c2nc(C#N)c(NCC(c3ccco3)N3CCCC3)o2)cc1 (stereo not given)"
system = "PC-3 prostate"
class_name = "class A"

[[record]]
molecule = "O=C(Nc1ccc2ncnc(Nc3ccc(F)c(Cl)c3)c2c1)c1ccccc1"
system = "PC-3 prostate"
class_name = "class B"

[[record]]
molecule = "CC(=O)Oc1ccc(O)cc1"
system = "PC-3 prostate"
class_name = "class C"

[[record]]
molecule = "CCOC(=O)c1sc(/N=C2\\NC(=O)/C(=C/c3ccc(N4CCN(C)CC4)cc3)S2)nc1C"
system = "PC-3 prostate"
class_name = "class C"

[[record]]
molecule = "CCOC(=O)C1=C(C)n2nc(CC#N)c(C#N)c2NC1c1ccc(Cl)cc1 (stereo not given)"
system = "PC-3 prostate"
class_name = "class C"

[[record]]
molecule = "C#C[C@@]1(O)[C@@H](CO)O[C@@H](n2cc(Cl)c3c(N)ncnc32)[C@@H]1O"
system = "PC-3 prostate"
class_name = "class A"

[[record]]
molecule = "C#C[C@@]1(O)[C@@H](CO)O[C@@H](n2cnc3c(-c4ccccc4)ncnc32)[C@@H]1O"
system = "PC-3 prostate"
class_name = "class C"


Enquiry: Band for COc1cc(/C=C/C(=O)c2ccc(NC(=O)CSc3nnc(-c4cc(OC)c(OC)c(OC)c4)n3-c3ccccc3)cc2)cc(OC)c1OC ?
Return: class A

Enquiry: Band for COc1ccc([C@H]2[C@@H](F)C(=O)N2c2cc(OC)c(OC)c(OC)c2)cc1F ?
Return: class A

Enquiry: Band for CCCCC1=c2c([nH]c3ccc(OC)cc23)=NC2C=CC=NC12 (stereo not given) ?
Return: class C

Data origin: PubChem BioAssay (NCI)
